These entries and their values trace back to ChEMBL document CHEMBL3351545.

Test: Induction of H2S release in phosphate buffer at 100 uM at pH 7.4 UV-irrdiated for 400 secs by methylene-blue assay
Assay type: physicochemical
Details: pH 7.4, 0.111111 h
measured_attribute: Activity (µM)
State the answer as a number, implicitly in µM.

Any idea what its Activity is? The compound is CC(CSCC(C)(C(=O)O)c1cccc(C(=O)c2ccccc2)c1)(C(=O)O)c1cccc(C(=O)c2ccccc2)c1 (stereo unspecified)
15
